This section lists pIC50 readings for Heat shock protein HSP 90-alpha (Homo sapiens, UniProt P07900).
Worth noting: pIC50 values are minus log10 of concentrations stated in mol/L.

Kindly note the recorded pIC50 for COCCOc1nc2c(c(NC(C)C)n1)CN(C(=O)c1cc(C(C)C)c(O)cc1O)CC2 , which is 7.52

Data point: CNc1ncc2c(n1)CCN(C(=O)c1cc(C(C)C)c(O)cc1O)C2 ; pIC50 = 6.95

Measured pIC50 of Cc1ncc2c(n1)CN(C(=O)c1cc(C(C)C)c(O)cc1O)C2 : 7.42

The reported value for CC(C)Nc1ncc2c(n1)CCN(C(=O)c1cc(C(C)C)c(O)cc1O)C2 in terms of pIC50 is 6.65

Per the record, CC(C)Oc1ncc2c(n1)CCN(C(=O)c1cc(C(C)C)c(O)cc1O)C2 has pIC50 of 7.19

Briefly, pIC50 measured for Cc1ncc2c(n1)CCN(C(=O)c1cc(C(C)C)c(O)cc1O)C2 : 7.59

The compound identified as CCN1CCN(c2ncc3c(n2)CCN(C(=O)c2cc(C(C)C)c(O)cc2O)C3)CC1 registered its pIC50 at 6.72

Consider COCCOc1nc2c(c(OC(C)C)n1)CN(C(=O)c1cc(C(C)C)c(O)cc1O)CC2 . Its measured pIC50 is 7.24

Lab note: CC(C)c1cc(C(=O)N2CCc3nc(N4CCN(C)CC4)ncc3C2)c(O)cc1O gave pIC50 of 6.57

The compound listed as COCCOc1nc2c(c(OC)n1)CN(C(=O)c1cc(C(C)C)c(O)cc1O)CC2 has a reported pIC50 of 7.52

The compound CC(C)c1cc(C(=O)N2CCc3nc(OCCN4CCCC4)ncc3C2)c(O)cc1O showed pIC50 equal to 7.54

Notebook: CCOc1ncc2c(n1)CCN(C(=O)c1cc(C(C)C)c(O)cc1O)C2 , pIC50 read as 7.25

get_value(item= CCCOc1nc(OCCOC)nc2c1CN(C(=O)c1cc(C(C)C)c(O)cc1O)CC2 , readout=pIC50) returns 7.44

Entry CC(C)c1cc(C(=O)N2CCc3nc(OC4CCN(C)CC4)ncc3C2)c(O)cc1O — recorded pIC50 = 7.12

// pIC50 lookup, compound = CCNc1nc(OCCOC)nc2c1CN(C(=O)c1cc(C(C)C)c(O)cc1O)CC2 , result: 7.55

// field: pIC50; key: CCCCOc1ncc2c(n1)CCN(C(=O)c1cc(C(C)C)c(O)cc1O)C2 ; value = 7.06

The recorded pIC50 for entry CC(C)c1cc(C(=O)N2CCc3nc(OC4CCCC4)ncc3C2)c(O)cc1O equals 7.15

Value of measured pIC50 for the entry CC(C)c1cc(C(=O)N2CCc3nc(OCCN(C)C)ncc3C2)c(O)cc1O : 7.52

Looking up CNc1nc(OCCOC)nc2c1CN(C(=O)c1cc(C(C)C)c(O)cc1O)CC2 , I see its pIC50 listed as 7.77

Entry COCCOc1nc2c(c(N(C)C)n1)CN(C(=O)c1cc(C(C)C)c(O)cc1O)CC2 , pIC50 reported as 7.80

Short answer for CC(C)c1cc(C(=O)N2CCc3nc(OCCCN(C)C)ncc3C2)c(O)cc1O : pIC50 was 7.44

// pIC50 value for CCCN(CCC)c1ncc2c(n1)CCN(C(=O)c1cc(C(C)C)c(O)cc1O)C2 : 6.43

Quick note, pIC50 for CC(C)c1cc(C(=O)N2CCc3nc(OC4CCCCC4)ncc3C2)c(O)cc1O landed at 6.99

Value of pIC50 reported for the compound CC(C)c1cc(C(=O)N2CCc3nc(N(C)C)ncc3C2)c(O)cc1O is 6.79

Value of measured pIC50 for the entry CCCOc1ncc2c(n1)CCN(C(=O)c1cc(C(C)C)c(O)cc1O)C2 : 7.22

Noted for CC(C)c1cc(C(=O)N2CCc3nc(N4CCCC4)ncc3C2)c(O)cc1O : its pIC50 reads 6.95

In plain terms, Cc1ncc2c(n1)CN(C(=O)c1cc(Br)c(O)cc1O)C2 has a documented pIC50 of 6.58

The recorded pIC50 for Cc1ncc2c(n1)CCN(C(=O)c1cc(Br)c(O)cc1O)C2 is 6.88

Query COc1ncc2c(n1)CCN(C(=O)c1cc(C(C)C)c(O)cc1O)C2 yields pIC50 of 7.12

Kindly note the recorded pIC50 for CCOc1nc(OCCOC)nc2c1CN(C(=O)c1cc(C(C)C)c(O)cc1O)CC2 , which is 7.59

Measured pIC50, CCCNc1ncc2c(n1)CCN(C(=O)c1cc(C(C)C)c(O)cc1O)C2 : 6.62

So, CC(C)c1cc(C(=O)N2CCc3nc(OCCN4CCOCC4)ncc3C2)c(O)cc1O ? Its pIC50 was 7.55

Please fill in: pIC50 reported for CCN(CC)CCOc1ncc2c(n1)CCN(C(=O)c1cc(C(C)C)c(O)cc1O)C2 = 7.49

Note to self: pIC50 recorded for COCCOc1nc2c(c(NC3CC3)n1)CN(C(=O)c1cc(C(C)C)c(O)cc1O)CC2 was 7.72

Item: CC(C)c1cc(C(=O)N2CCc3nc(OC4CCOCC4)ncc3C2)c(O)cc1O | pIC50: 7.25

Field pIC50 (entry COCCOc1ncc2c(n1)CCN(C(=O)c1cc(C(C)C)c(O)cc1O)C2 ) reads 7.72

So for CC(C)c1cc(C(=O)N2CCc3nc(N4CCCCC4)ncc3C2)c(O)cc1O , the logged pIC50 turned out to be 6.76

Noted for CCN(CC)c1nc(OCCOC)nc2c1CN(C(=O)c1cc(C(C)C)c(O)cc1O)CC2 : its pIC50 reads 6.99

Value of pIC50 reported for the compound Cc1ncc2c(n1)CN(C(=O)c1cc(Cl)c(O)cc1O)C2 is 6.32

Hey, just so you know, these numbers are from ChEMBL document CHEMBL4706476.
